protocol-text: Toxicity liver stage against HepG2, at 10uM
Type: cell-based
Parameters: test concentration 10 uM, cell line HepG2-A16-CD81EGFP
measurement-context: human, HepG2-A16-CD81EGFP cells; read-out: INHIBITION
measured-property: cytotoxicity at 10 µM (%)
Give just the numeric value; % need not be written.

// worked examples, cytotoxicity at 10 µM included
molecule	measure-unit	cytotoxicity at 10 µM
O=C(N1CCC(Oc2ccncc2)C1)C1(c2ccccc2F)CC1 (stereo not drawn)	%	-10.4
CCn1cnnc1CNC(=O)N(C)Cc1ccc(Cl)cc1Cl	%	-17.7
CCc1nnsc1C(=O)N(C)Cc1nnc2n1CCC2	%	-0.862
N#Cc1ccnc(N2CCN(CC(O)c3c(F)cccc3F)CC2)c1 (stereo not drawn)	%	-5.43
CCCN(C(=O)c1cc2c([nH]c1=O)CCCC2=O)C1CCCCC1	%	-0.708
CN(C(=O)Cn1nc(-c2ccc(Cl)cc2)ccc1=O)C1CCS(=O)(=O)C1 (stereo not drawn)	%	1.96
Cc1ccc(CNc2cc(N3CCCC3CO)ncn2)s1 (stereo not drawn)	%	-2.9
Cc1cccc(CN2C[C@@H]3CN(C(=O)c4cnccn4)C[C@@H]3C2=O)c1	%	2.43

Read the next record carefully.
Enquiry: Suppose we examine the molecule c1cncc(COC2COC3(CCN(c4cnccn4)CC3)C2)c1 (stereo not drawn) ; what cytotoxicity at 10 µM value has been reported?
Return: 1.89

// data source = ChEMBL document CHEMBL4513216
